TARGET_ENTITY: Stb5 (UniProt P38699)
Sequence: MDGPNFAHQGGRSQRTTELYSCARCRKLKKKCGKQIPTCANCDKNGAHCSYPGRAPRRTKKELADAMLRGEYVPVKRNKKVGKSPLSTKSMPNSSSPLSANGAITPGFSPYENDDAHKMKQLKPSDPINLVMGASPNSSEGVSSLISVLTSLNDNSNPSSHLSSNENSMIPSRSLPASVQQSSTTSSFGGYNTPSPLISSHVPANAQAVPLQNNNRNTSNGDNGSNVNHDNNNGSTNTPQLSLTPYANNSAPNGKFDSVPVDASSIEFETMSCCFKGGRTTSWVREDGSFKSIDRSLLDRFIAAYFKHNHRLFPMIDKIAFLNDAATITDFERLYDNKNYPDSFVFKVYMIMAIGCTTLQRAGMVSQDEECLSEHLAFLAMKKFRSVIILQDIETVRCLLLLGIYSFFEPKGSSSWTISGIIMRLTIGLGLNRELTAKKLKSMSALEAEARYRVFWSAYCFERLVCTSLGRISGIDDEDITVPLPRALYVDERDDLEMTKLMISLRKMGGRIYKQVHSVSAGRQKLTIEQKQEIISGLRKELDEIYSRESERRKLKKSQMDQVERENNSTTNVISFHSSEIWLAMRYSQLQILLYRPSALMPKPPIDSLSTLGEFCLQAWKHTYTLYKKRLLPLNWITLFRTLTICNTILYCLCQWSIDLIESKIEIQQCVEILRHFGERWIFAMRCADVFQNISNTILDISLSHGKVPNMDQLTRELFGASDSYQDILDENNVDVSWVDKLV
TEST_DETAILS: PBM E-score (8-mer binding enrichment) (E-score (-0.5 to 0.5)); higher = stronger / more preferred TF binding
EXPERIMENTAL_SETUP: protein concentration: 200 nM; construct: GST-full length
Whole data set: some 33,000 sequences, median “E-score (-0.5 to 0.5)” near -0.054, cut for the highest 2% near 0.35. The entries come from a sample that favours the highest values as a whole.
Exercise: for every item that follows, state its recorded PBM E-score.
Enter a number only.

Req: API: value(readout= PBM E-score, system= Stb5 (UniProt P38699), query= GGTGCCGA )
Resp: 0.292

Req: Recall the recorded PBM E-score for CGGCCGCA with Stb5 (UniProt P38699) and state it.
Resp: 0.235

Req: PBM E-score of AGTGCCGA on Stb5 (UniProt P38699)?
Resp: 0.387

Req: Report PBM E-score for CAAGACCG tested on Stb5 (UniProt P38699).
Resp: 0.312

Req: Request: PBM E-score, test system Stb5 (UniProt P38699), entry CATATCAC
Resp: 0.0389

Req: # get_value(readout= PBM E-score, system= Stb5 (UniProt P38699)) for ATTGCCGA
Resp: 0.318

Req: Record AATGACCT : what is its PBM E-score with Stb5 (UniProt P38699)?
Resp: -0.0215

Req: Could you share what PBM E-score was measured for AGATAACA , tested on Stb5 (UniProt P38699)?
Resp: -0.0529

Req: Lab note: need PBM E-score for ACGCTGCT on Stb5 (UniProt P38699), anyone have it?
Resp: -0.0899

Req: What PBM E-score appears in the records for this sequence with Stb5 (UniProt P38699)? ACGCCGTC
Resp: 0.405

Req: Provide value of PBM E-score for this record tested with Stb5 (UniProt P38699): CGTGCCGC
Resp: 0.249

Req: Checklist item: PBM E-score tested on Stb5 (UniProt P38699), entry AGTGCCTG , value?
Resp: -0.17

Req: Test system Stb5 (UniProt P38699); read-out PBM E-score; what value for AACCCTTA ?
Resp: -0.147

Req: Lab note: need PBM E-score for CCTGACTC on Stb5 (UniProt P38699), anyone have it?
Resp: -0.153

Req: # returns recorded PBM E-score (system: Stb5 (UniProt P38699)) for CGCAGACA
Resp: -0.0673

Req: Checklist item: PBM E-score tested on Stb5 (UniProt P38699), entry AGTCTCAT , value?
Resp: -0.154

----------
TARGET_ENTITY: Stb5 (UniProt P38699)
Sequence: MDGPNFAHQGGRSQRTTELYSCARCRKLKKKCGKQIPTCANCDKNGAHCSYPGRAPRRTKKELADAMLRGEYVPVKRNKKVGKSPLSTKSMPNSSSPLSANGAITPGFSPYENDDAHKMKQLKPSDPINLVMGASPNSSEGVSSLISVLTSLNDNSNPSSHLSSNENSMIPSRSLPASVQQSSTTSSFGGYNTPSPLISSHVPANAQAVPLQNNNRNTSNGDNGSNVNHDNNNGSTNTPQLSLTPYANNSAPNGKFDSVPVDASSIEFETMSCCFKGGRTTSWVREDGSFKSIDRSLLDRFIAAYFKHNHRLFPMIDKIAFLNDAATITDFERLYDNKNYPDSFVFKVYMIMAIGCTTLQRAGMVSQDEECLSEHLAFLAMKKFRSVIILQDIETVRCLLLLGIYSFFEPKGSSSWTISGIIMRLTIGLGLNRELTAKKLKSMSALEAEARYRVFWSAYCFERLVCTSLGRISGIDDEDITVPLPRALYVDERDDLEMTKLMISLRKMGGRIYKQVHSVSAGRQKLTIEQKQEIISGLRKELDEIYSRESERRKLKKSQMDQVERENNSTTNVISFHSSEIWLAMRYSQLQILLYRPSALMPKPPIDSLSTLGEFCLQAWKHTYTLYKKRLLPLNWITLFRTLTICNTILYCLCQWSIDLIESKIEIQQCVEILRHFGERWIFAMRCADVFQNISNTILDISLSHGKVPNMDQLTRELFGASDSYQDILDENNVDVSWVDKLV
TEST_DETAILS: PBM E-score (8-mer binding enrichment) (E-score (-0.5 to 0.5)); higher = stronger / more preferred TF binding
EXPERIMENTAL_SETUP: protein concentration: 200 nM; construct: GST-full length
Over roughly 33,000 sequences, “E-score (-0.5 to 0.5)” has its median near -0.054; the highest 2% begin near 0.35. Many of the other results were omitted from the sample, so the highest values are more common in it than they were.
EXPERIMENTAL_READOUT: PBM E-score
Answer field: number only, no words.

Req: If you can, please state the reported PBM E-score value of GAATTCTA .
Resp: -0.248

Req: What does the record list as PBM E-score for ACGCCCCG ?
Resp: 0.188

Req: For the sequence shown here, ACGCCCGC , give the reported PBM E-score.
Resp: 0.28

Req: Look at this sequence and give its reported PBM E-score. AGGGCGCC
Resp: -0.0741

Req: GET /values?readout=PBM E-score&item= ACGGGAAT
Resp: 0.371

Req: Fill in: PBM E-score of ACGGGGAC is ___
Resp: 0.241

Req: Item CGAAAGAA has what recorded PBM E-score?
Resp: 0.0281

Req: Requested field: PBM E-score. Item: CGAGGTGC
Resp: -0.146

Req: Request the reported PBM E-score associated with ACGGGGCT
Resp: 0.366

Req: # query: PBM E-score of entry CCGCCCCG
Resp: 0.409

Req: State the recorded PBM E-score for this entry: ACTGCGCG
Resp: 0.122

Req: Can you look up the measured PBM E-score of AAACCTCT for me?
Resp: 0.015

----------
TARGET_ENTITY: Stb5 (UniProt P38699)
Sequence: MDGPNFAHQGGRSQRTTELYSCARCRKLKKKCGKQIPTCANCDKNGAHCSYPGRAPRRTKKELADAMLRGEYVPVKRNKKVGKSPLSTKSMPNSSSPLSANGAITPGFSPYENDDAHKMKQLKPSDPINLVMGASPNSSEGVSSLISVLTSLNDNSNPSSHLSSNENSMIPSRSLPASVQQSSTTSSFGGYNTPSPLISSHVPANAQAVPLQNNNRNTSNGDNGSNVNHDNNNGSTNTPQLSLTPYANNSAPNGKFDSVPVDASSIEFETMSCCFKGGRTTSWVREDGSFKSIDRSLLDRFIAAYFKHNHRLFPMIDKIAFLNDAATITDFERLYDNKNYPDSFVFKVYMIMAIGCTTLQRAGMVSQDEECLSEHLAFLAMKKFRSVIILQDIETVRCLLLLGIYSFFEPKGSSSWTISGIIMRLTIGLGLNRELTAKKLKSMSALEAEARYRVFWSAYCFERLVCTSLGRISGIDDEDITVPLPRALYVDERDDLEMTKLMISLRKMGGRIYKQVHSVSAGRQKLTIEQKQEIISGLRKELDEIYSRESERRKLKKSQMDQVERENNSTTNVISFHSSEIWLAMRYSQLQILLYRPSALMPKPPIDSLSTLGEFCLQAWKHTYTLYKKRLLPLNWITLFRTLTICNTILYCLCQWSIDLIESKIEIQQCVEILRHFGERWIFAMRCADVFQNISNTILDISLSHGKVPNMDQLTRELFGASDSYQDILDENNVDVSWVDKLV
TEST_DETAILS: PBM E-score (8-mer binding enrichment) (E-score (-0.5 to 0.5)); higher = stronger / more preferred TF binding
EXPERIMENTAL_SETUP: protein concentration: 200 nM; construct: GST-full length
Whole data set: some 33,000 sequences, median “E-score (-0.5 to 0.5)” near -0.054, cut for the highest 2% near 0.35. The sample as a whole holds a higher share of the highest values than the screen did.
EXPERIMENTAL_READOUT: PBM E-score
Give the figure only, with no unit attached.

Req: Param item = CTAAGAAC ; retrieve measured PBM E-score.
Resp: 0.00444

Req: Bench note: what PBM E-score did CACCGGGG show?
Resp: 0.33

Req: Which PBM E-score value is on record for CACCGGAA ?
Resp: 0.293

Req: For CGGAATTC , what is its reported PBM E-score?
Resp: 0.0284

Req: Given GGGGGATA , state its recorded PBM E-score.
Resp: 0.13

Req: So what does the record say about PBM E-score for CCCTTGGC ?
Resp: -0.224

Req: Requested read-out: PBM E-score. Entry: TTTCAAAA
Resp: -0.0616

Req: Looking for the measured PBM E-score of AACCGGAC , can you help?
Resp: 0.28

Req: Return reported PBM E-score; argument: AAAATCAC
Resp: -0.092
